This listing pairs compounds with measured growth.
test system: UACC-62 melanoma; test: NCI-60 one-dose screen, 48 h (100 = growth as untreated, 0 = no growth, -100 = all killed); settings: 10 µM unless noted
About 83,000 compounds went through this panel and 20% of them were active in at least one assay; those are over-represented in the sample as a whole.
API: value field is a number in %; no unit string.

// known answers, use as guide
compound=Cc1nn(-c2ccc(Cl)cc2)c2nc3c(nc12)C(=O)c1ccccc1-3 assay_target="UACC-62 melanoma" test_value=55.2
compound=C[C@]12CC[C@@H]3c4ccc(O)c([N+](=O)[O-])c4CC[C@H]3[C@@H]1CC[C@@H]2NS(=O)(=O)c1cccc(Br)c1 assay_target="UACC-62 melanoma" test_value=35.4
compound=c1cnc2ccc3ncccc3c2c1 assay_target="UACC-62 melanoma" test_value=99.2
compound="CO[C@H]1/C=C/O[C@@]2(C)Oc3c(C)c(O)c4c(O)c(c(/C=N/N5C(C)CN(Cc6ccccc6)CC5C)c(O)c4c3C2=O)NC(=O)/C(C)=C\\C=C\\[C@H](C)[C@H](O)[C@@H](C)[C@@H](O)[C@@H](C)[C@H](OC(C)=O)[C@@H]1C (stereo partly drawn)" assay_target="UACC-62 melanoma" test_value=72.8
compound=Nc1ncc(-c2cnn(C3CCNCC3)c2)cc1-c1nc2cc(Cl)ccc2o1 assay_target="UACC-62 melanoma" test_value=-100

# growth of Nc1cc(Cl)c(S(N)(=O)=O)cc1S(N)(=O)=O = 101

# growth of CCC(c1ccccc1)c1noc(CCN(CC)CC)n1 (stereo not drawn) = 98.9

# growth of COC(=O)[C@]1(CCSC)N[C@H](c2cn(-c3ccccc3)nc2C)[C@@H]2C(=O)N(c3ccc(C)cc3)C(=O)[C@@H]21 = 102

# growth of Cc1cc(C)c(OC(=O)CSc2nc3ccccc3c(=O)n2CCc2ccccc2)cc1C = 77

# growth of Cn1cnc([N+](=O)[O-])c1S(=O)(=O)Oc1ccc(Cl)cc1 = 78.7

# growth of Cc1nn(-c2ccc(Br)cc2)c2nc3c(nc12)C(=O)C(=O)c1ccccc1-3 = 90.6

# growth of COc1ccc2[nH]cc(/C=C3/C(=O)Nc4ccc(Cl)cc43)c2c1 = 51.8

* * *

system: SK-MEL-5 melanoma; assay: NCI-60 one-dose screen, 48 h; settings: 10 µM unless noted
Compounds without any hit were thinned out: in the full panel of roughly 83,000, 20% have a hit. Active and inactive are the calls of the source. The calls were made as follows: active = growth percent below 10; inactive = the rest.
// one of TRUE for active, FALSE for inactive, no free text

Solved entries:
molecule=CCOC(=O)c1c2c(c(C)n1Cc1ccc(OC)cc1)-c1nc(N)ncc1CC2 label=FALSE
molecule=Clc1ccc(-n2cnc3c(Cl)ncnc32)cc1Cl label=FALSE
molecule=CCN(CC)CCNc1ccc(Cl)cc1Cl label=FALSE
molecule=COc1cccc(CCC2C(=O)CCCC2=O)c1 label=FALSE
molecule=O=C(Oc1ccc[nH]c1=O)c1cccc(Cl)c1 label=FALSE
molecule=CC(=O)NCCSC(=O)C(=O)SCCNC(C)=O label=FALSE

In: Tell me the assay call for O=C(C=C=Nc1ccccc1)C(=O)N=C=Cc1ccccc1 please.
Out: FALSE

In: Tell me the assay call for Cc1ccc2c(c1)O/C(=C\c1ccc([N+](=O)[O-])o1)C2=O please.
Out: FALSE

In: Tell me the assay call for COc1ccc2[nH]c(-c3ccccc3)cc2c1 please.
Out: FALSE

In: Tell me the assay call for COc1cc(Oc2cc(-c3cccnc3)ccc2NC(=O)Nc2ccc(F)cc2F)cc(OC)c1OC please.
Out: FALSE

In: Tell me the assay call for O=C(/C=C/c1ccc(Cl)cc1)c1ccccc1 please.
Out: FALSE

In: Tell me the assay call for Cc1nnc(Nc2ccc(NC(=O)Nc3ccc(Cl)cc3)cc2)c2ccccc12 please.
Out: FALSE

In: Tell me the assay call for COC(=O)CCC1=C(C)/C(=C/c2[nH]c(-c3ccc[nH]3)cc2OC)N=C1C please.
Out: TRUE

In: Tell me the assay call for CCCCCCCC/C=C/CCCCCCCC1=NC(C)(C)CN1CCO please.
Out: TRUE

In: Tell me the assay call for COC1=CC(c2ccc[nH]2)=N/C1=C\c1[nH]c(C)c(C(=O)CCC(=O)Oc2ccc3c(c2)CCC2C3CC[C@]3(C)C(=O)CC[C@@H]23)c1C (stereo partly specified) please.
Out: FALSE

In: Tell me the assay call for O=C(CSc1nnc(Nc2ccccc2)s1)NCCc1ccc(F)cc1 please.
Out: FALSE
